Reference for the values: patent US20110166062A1

Experimental system: GLP-1 receptor (UniProt P43220 24-463, limits assumed)
Test method notes: cell-based or functional assay
Where no end group is shown, it is not given here.
// boundary case: EC50 equal to 100 nM maps to criterion not met; strictly smaller maps to criterion met

Example cases with answers are listed next.
binder="YAEGTFISDYSIAMDKIHQQDFVNWLLAQ-NH2 [mt-106]" answer_label="criterion not met"
binder="YSQGTFTSDYSKYLDEIHQKEFVNWLLAQ-NH2 [mt-118]" answer_label="criterion met"
binder="YAEGTFISDYSIAMDKIHQQDFVNWLLAQKGKKNWLKHNITQ-NH2 [mt-99]" answer_label="criterion not met"

Problem: For the binder YXEGTFISDYSIAMDKIHQQDFVNWLLAQKGKKNWLKHNITQ (C-terminal amide) [mt-100] , is EC50 under 100 nM?
criterion not met

Problem: For the binder YSQGTFTSDYSKYLDEIHQKDFVNWLLAGGPSSGAPPPS-NH2 [mt-116] , is EC50 under 100 nM?
criterion met
